Molecular target: T1, human-CD40 monomer (human, UniProt P25942 21-193, limits assumed)
T1 construct: also called hCD40-monomer; human-CD40-monomer protein
T1 sequence (P25942 21-193 limits assumed): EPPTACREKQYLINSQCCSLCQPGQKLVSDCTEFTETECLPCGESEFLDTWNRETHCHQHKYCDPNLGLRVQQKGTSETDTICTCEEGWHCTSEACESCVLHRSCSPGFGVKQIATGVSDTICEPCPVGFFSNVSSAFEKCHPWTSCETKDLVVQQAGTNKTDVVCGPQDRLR
Experiment: SPR 2 pt screen, Ab on protein A
Recorded endpoint: pKd
Answers are plain numbers, as −log10 of the molar value.

[
  {
    "Binder": "humanized Y1238 hz53 (hz-HC11 / hz-LC3), IgG1.3f (antibody, V domains shown, IgG1.3f heavy constant, common CL; expression supernatant; also called Sup 53) VH: QVQLVQSGAEVKKPGASVKVSCKASGYAFTNYLIEWVRQRPGQGLEWMGVINPGSGGTNYNEKFKGRVTMTRDKSSSTAYMELSRLRSDDTAVYFCARSQLGRRFDYWGQGTLVTVSS VL: DIQMTQSPSSLSASVGDRVTITCKASQDVRTGVAWYQQKPGQSPKLLIYSASYRNTGVPSRFSGSRSGTDFTFTISSLQPEDIAVYYCQQHYSPPYTFGGGTKVEIK",
    "Recorded endpoint": "pKd",
    "Experimental result": 7.74
  },
  {
    "Binder": "humanized Y1238 hz32 (hz-HC7 / hz-LC2), IgG1.3f (antibody, V domains shown, IgG1.3f heavy constant, common CL; expression supernatant; also called Sup 32) VH: QVQLVQSGAEVVKPGASVKVSCKASGYAFTNYLIEWVRQRPGQGLEWMGVINPGSGGTNYNEKFKGRVTMTADKSSSTAYMQLSRLRSDDTAVYFCARSQLGRRFDYWGQGTLVTVSS VL: DIQMTQSPSSLSASVGDRVTITCKASQDVRTGVAWYQQKPGKAPKLLIYSASYRNTGVPSRFSGSRSGTDFTFTISSLQPEDIATYYCQQHYSPPYTFGGGTKVEIK",
    "Recorded endpoint": "pKd",
    "Experimental result": 8.35
  },
  {
    "Binder": "humanized Y1238 hz25 (hz-HC5 / hz-LC5), IgG1.3f (antibody, V domains shown, IgG1.3f heavy constant, common CL; expression supernatant; also called Sup 25) VH: QVQLVQSGAEVKKPGASVKVSCKASGYAFTNYLIEWVRQRPGQGLEWMGVINPGSGGTNYNEKFKGRVTMTADKSISTAYMELSRLRSDDTAVYYCARSQLGRRFDYWGQGTLVTVSS VL: DIQMTQSPSSLSASVGDRVTITCKASQDVRTGVAWYQQKPGQAPKLLIYSASYRNTGVPSRFSGSRSGTDFTFTISSLQPEDIAVYYCQQHYSPPYTFGGGTKVEIK",
    "Recorded endpoint": "pKd",
    "Experimental result": 8.18
  },
  {
    "Binder": "humanized Y1238 hz20 (hz-HC4 / hz-LC5), IgG1.3f (antibody, V domains shown, IgG1.3f heavy constant, common CL; expression supernatant; also called Sup 20) VH: QVQLVQSGAEVKKPGASVKVSCKASGYAFTNYLIEWVRQAPGQGLEWMGVINPGSGGTNYNEKFKGRVTMTADKSISTAYMELSRLRSDDTAVYYCARSQLGRRFDYWGQGTLVTVSS VL: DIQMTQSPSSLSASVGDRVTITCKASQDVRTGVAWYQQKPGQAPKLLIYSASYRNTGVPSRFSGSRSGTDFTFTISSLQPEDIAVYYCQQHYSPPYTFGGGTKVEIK",
    "Recorded endpoint": "pKd",
    "Experimental result": 8.08
  }
]

// query Field request: pKd | item: humanized Y1238 hz46 (hz-HC10 / hz-LC1), IgG1.3f (antibody, V domains shown, IgG1.3f heavy constant, common CL; expression supernatant; also called Sup 46) VH: QVQLVQSGAEVKKPGASVKVSCKASGYAFTNYLIEWVRQRPGQGLEWMGVINPGSGGTNYNEKFKGRVTMTRDKSISTAYMELSRLRSDDTAVYYCARSQLGRRFDYWGQGTLVTVSS VL: DIQMTQSPSSLSASVGDRVTITCKASQDVRTGVAWYQQKPGKAPKLLIYSASYRNTGVPSRFSGSGSGTDFTFTISSLQPEDIATYYCQQHYSPPYTFGGGTKVEIK
// result 8.29
